# Test system: NCI-H2228
# PROCEDURE DETAILS: relative viability (nuclei count vs DMSO), 5 days (fraction); higher = more cells survive
# CONDITIONS: first compound 0.02 µM
ENDPOINT LABEL: relative viability
// no unit, no text: just the number

compound="CC(=O)O[C@@]12CO[C@@H]1C[C@H](O)[C@@]1(C)C(=O)[C@H](O)C3=C(C)[C@@H](OC(=O)[C@H](O)[C@@H](NC(=O)OC(C)(C)C)c4ccccc4)C[C@@](O)([C@@H](OC(=O)c4ccccc4)[C@H]21)C3(C)C [Docetaxel] + CC(=O)Nc1cccc(-n2c(=O)n(C3CC3)c(=O)c3c(Nc4ccc(I)cc4F)n(C)c(=O)c(C)c32)c1 [Trametinib] (partner 0.02 µM)" target_under_test=NCI-H2228 assay_result=0.121
compound="CC(=O)O[C@@]12CO[C@@H]1C[C@H](O)[C@@]1(C)C(=O)[C@H](O)C3=C(C)[C@@H](OC(=O)[C@H](O)[C@@H](NC(=O)OC(C)(C)C)c4ccccc4)C[C@@](O)([C@@H](OC(=O)c4ccccc4)[C@H]21)C3(C)C [Docetaxel] + CCNC(=O)c1noc(-c2cc(C(C)C)c(O)cc2O)c1-c1ccc(CN2CCOCC2)cc1 [Luminespib] (partner 0.01 µM)" target_under_test=NCI-H2228 assay_result=0.19
compound="CC(=O)O[C@@]12CO[C@@H]1C[C@H](O)[C@@]1(C)C(=O)[C@H](O)C3=C(C)[C@@H](OC(=O)[C@H](O)[C@@H](NC(=O)OC(C)(C)C)c4ccccc4)C[C@@](O)([C@@H](OC(=O)c4ccccc4)[C@H]21)C3(C)C [Docetaxel] + CC(=O)c1c(C)c2cnc(Nc3ccc(N4CCNCC4)cn3)nc2n(C2CCCC2)c1=O [Palbociclib] (partner 0.5 µM)" target_under_test=NCI-H2228 assay_result=0.129

Turning to the following compound.
(Q) Give the reported value of relative viability for this record: CC(=O)O[C@@]12CO[C@@H]1C[C@H](O)[C@@]1(C)C(=O)[C@H](O)C3=C(C)[C@@H](OC(=O)[C@H](O)[C@@H](NC(=O)OC(C)(C)C)c4ccccc4)C[C@@](O)([C@@H](OC(=O)c4ccccc4)[C@H]21)C3(C)C [Docetaxel] + C[C@@H](Oc1cc(-c2cnn(C3CCNCC3)c2)cnc1N)c1c(Cl)ccc(F)c1Cl [Crizotinib] (partner 1 µM)
(A) 0.159

Taken from the supplement of paper PMC10307832.
